Where these numbers come from: ChEMBL document CHEMBL1131475

- Assay Name: in vivo
- Cond: rat, plasma, iv
Returns Y if the recorded half-life is greater than or equal to 30 min, and N otherwise.

Look over these answered cases.
# Compound, Category Label
records = [
    ("COc1cncc(CN(C)C(=O)NC(C(=O)N[C@@H](Cc2ccccc2)C[C@H](O)[C@H](Cc2ccccc2)NC(=O)OCc2cccnc2)C(C)C)c1 (stereo partly drawn)", "N"),
    ("COc1ccc(CN(C)C(=O)NC(C(=O)N[C@@H](Cc2ccccc2)C[C@H](O)[C@H](Cc2ccccc2)NC(=O)OCc2cccnc2)C(C)C)nc1 (stereo partly drawn)", "Y"),
]

Query: Test whether the compound Cc1ncc(COC(=O)NC(C(=O)N[C@@H](Cc2ccccc2)C[C@H](O)[C@H](Cc2ccccc2)NC(=O)OCc2cccnc2)C(C)C)nc1C (stereo partly drawn) records half-life of 30 min or higher.
Reply: N

Query: Test whether the compound CC(C)c1cccc(COC(=O)NC(C(=O)N[C@@H](Cc2ccccc2)C[C@H](O)[C@H](Cc2ccccc2)NC(=O)OCc2cccnc2)C(C)C)n1 (stereo partly drawn) records half-life of 30 min or higher.
Reply: Y

Query: Test whether the compound Cc1cccc(CN(C)C(=O)NC(C(=O)N[C@@H](Cc2ccccc2)C[C@H](O)[C@H](Cc2ccccc2)NC(=O)OCc2cccnc2)C(C)C)n1 (stereo partly drawn) records half-life of 30 min or higher.
Reply: Y

Query: Test whether the compound CC(C)C(NC(=O)N(C)Cc1csc(C2CC2)n1)C(=O)N[C@@H](Cc1ccccc1)C[C@H](O)[C@H](Cc1ccccc1)NC(=O)OCc1cncs1 (stereo partly drawn) records half-life of 30 min or higher.
Reply: Y
